Biological target: TANK-2 enzyme (Homo sapiens, UniProt Q9H2K2)
Construct: made in house
Sequence (Q9H2K2 1-1166): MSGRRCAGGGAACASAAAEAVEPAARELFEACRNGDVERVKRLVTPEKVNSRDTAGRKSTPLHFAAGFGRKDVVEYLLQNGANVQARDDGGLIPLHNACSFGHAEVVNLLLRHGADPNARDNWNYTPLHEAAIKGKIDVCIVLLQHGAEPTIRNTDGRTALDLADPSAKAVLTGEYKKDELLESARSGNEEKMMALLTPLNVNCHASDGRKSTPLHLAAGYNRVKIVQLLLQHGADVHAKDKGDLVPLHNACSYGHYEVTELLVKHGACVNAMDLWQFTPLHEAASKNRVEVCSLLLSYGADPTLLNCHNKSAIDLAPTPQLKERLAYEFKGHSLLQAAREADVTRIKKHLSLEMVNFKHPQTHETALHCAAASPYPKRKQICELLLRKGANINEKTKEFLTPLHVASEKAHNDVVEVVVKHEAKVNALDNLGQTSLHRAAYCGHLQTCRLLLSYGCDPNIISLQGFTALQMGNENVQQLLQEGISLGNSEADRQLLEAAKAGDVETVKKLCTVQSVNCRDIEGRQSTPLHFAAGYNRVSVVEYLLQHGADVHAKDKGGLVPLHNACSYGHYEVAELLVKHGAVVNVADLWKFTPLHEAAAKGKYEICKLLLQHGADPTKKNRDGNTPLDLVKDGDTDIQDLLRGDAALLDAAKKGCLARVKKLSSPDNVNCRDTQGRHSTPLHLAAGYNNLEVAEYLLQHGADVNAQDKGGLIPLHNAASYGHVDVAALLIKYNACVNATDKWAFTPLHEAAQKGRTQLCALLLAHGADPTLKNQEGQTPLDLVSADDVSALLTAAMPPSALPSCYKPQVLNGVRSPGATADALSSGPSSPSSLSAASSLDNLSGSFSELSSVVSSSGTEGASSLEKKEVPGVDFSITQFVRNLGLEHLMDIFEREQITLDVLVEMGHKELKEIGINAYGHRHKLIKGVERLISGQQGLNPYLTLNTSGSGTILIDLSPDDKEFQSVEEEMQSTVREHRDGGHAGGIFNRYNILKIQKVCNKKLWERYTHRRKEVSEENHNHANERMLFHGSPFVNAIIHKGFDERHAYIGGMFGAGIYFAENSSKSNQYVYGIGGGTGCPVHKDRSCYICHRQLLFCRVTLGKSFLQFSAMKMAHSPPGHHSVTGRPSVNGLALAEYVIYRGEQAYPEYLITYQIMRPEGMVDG
Assay: In vitro Scintillation Proximity Assay (SPA) for TANK-2 inhibitory activity
Assay type: biochemical
Conditions: read-out: in vitro SPA assay TANK-2 pIC50 (converted)
PARAMETER MEASURED: IC50 (nM)
Enter your answer as a number in nM; do not include the unit.

Examples from the recorded data:
{"COMPOUND": "CCc1cc2ccc(C(C)(C#N)Cc3cc(OCCOC)nc(C)n3)cc2[nH]c1=O (stereo not shown)", "IC50, nM": 158}
{"COMPOUND": "CCc1cc2ccc(C(C)(C#N)Cc3cccc(OC[C@@H](O)CO)c3)cc2[nH]c1=O (stereo partly shown)", "IC50, nM": 1580}
{"COMPOUND": "CCc1cc2ccc([C@](C)(C#N)CCOc3ccc(C#N)cc3)cc2[nH]c1=O (single isomer, unassigned)", "IC50, nM": 63.1}

Quick one: IC50 of CCc1cc2ccc(C(C)(C#N)Cc3cc(C(F)(F)F)cc(C(F)(F)F)c3)cc2[nH]c1=O (stereo not shown) ?
1000

The origin of these recorded values is patent US8778966B2.
